Entries with reported IC50 on SHV-1 (Klebsiella pneumoniae, UniProt P0AD64)
Sequence (P0AD64 22-286): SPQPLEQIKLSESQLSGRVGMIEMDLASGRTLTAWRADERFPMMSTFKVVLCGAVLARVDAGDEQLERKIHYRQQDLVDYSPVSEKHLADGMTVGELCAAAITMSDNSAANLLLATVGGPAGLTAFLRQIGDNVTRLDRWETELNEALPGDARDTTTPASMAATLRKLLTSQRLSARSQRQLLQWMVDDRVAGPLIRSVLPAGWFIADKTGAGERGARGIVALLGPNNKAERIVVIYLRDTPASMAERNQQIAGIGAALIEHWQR
readout.label: IC50 (pM)

{"columns": ["compound", "system.name", "readout.unit", "numeric.result"],
 "data": [
  ["N#C[C@@H]1CC[C@@H]2CN1C(=O)N2OC(F)(F)C(=O)[O-].[Na+] [AF2]", "SHV-1 (Klebsiella pneumoniae, UniProt P0AD64)", "pM", 1400],
  ["NC(=O)[C@@H]1CC[C@@H]2CN1C(=O)N2OC(F)(F)C(=O)[O-].[Na+] [AF1]", "SHV-1 (Klebsiella pneumoniae, UniProt P0AD64)", "pM", 120]
]}

====

Experiment: Rat intraduodenal bioavailability determination (Method 3)
Assay type: in vivo, Sprague-Dawley (SD) rats
Details: male, Sprague-Dawley, intravenous 10 mg/kg, AF1 titrated in plasma
readout.label: AUC(0-inf) (ng·h/mL)

{"columns": ["structure", "numeric.result"],
 "data": [
  ["NC(=O)[C@@H]1CC[C@@H]2CN1C(=O)N2OC(F)(F)C(=O)[O-].[Na+]", 4130]
]}

====

Listing: MIC ATB in combination of selected compounds
Test system: Escherichia coli (ECO) isolates
Experiment: MIC of compounds alone and combined with antibacterials, broth microdilution (CLSI)
Type: cell-based
Conditions: ECO UFR176; AF1 @ 4 μg/mL
readout.label: MIC ATB in combination (µg/mL)

{"columns": ["compound", "readout.label", "numeric.result"],
 "data": [
  ["CC(C)(O/N=C(\\C(=O)N[C@@H]1C(=O)N2C(C(=O)[O-])=C(C[n+]3ccccc3)CS[C@H]12)c1csc(N)n1)C(=O)O [CAZ, Ceftazidime]", "MIC ATB in combination", 2],
  ["CO/N=C(\\C(=O)N[C@@H]1C(=O)N2C(C(=O)O)=C(COC(N)=O)CS[C@H]12)c1ccco1 [FUR, Cefuroxime]", "MIC ATB in combination", 4],
  ["CC1(C)S[C@@H]2[C@H](NC(=O)[C@H](N)c3ccc(O)cc3)C(=O)N2[C@H]1C(=O)O [AMX, Amoxicillin]", "MIC ATB in combination", 32]
]}

====

Molecular target: TEM-1 (Escherichia coli)
Construct: made in house; host or cells: E. coli
Sequence (P62593 24-286 limits assumed): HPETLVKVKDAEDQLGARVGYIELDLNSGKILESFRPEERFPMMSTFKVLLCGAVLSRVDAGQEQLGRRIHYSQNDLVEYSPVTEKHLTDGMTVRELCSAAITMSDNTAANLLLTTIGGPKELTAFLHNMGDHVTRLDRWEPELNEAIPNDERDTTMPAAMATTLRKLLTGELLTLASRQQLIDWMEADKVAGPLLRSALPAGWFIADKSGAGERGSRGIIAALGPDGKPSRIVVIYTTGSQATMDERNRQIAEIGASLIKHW
Assay: β-lactamase inhibitory activity, IC50 (nitrocefin hydrolysis)
Type: biochemical
pIC50: −log10 of the molar value.
readout.label: pIC50

{"columns": ["structure", "system.name", "numeric.result"],
 "data": [
  ["N#C[C@@H]1CC[C@@H]2CN1C(=O)N2OC(F)(F)C(=O)[O-].[Na+]", "TEM-1 (Escherichia coli)", 9.02]
]}

====

Molecular target: UniProtKB Q5QT35
Sequence (Q5QT35 26-274): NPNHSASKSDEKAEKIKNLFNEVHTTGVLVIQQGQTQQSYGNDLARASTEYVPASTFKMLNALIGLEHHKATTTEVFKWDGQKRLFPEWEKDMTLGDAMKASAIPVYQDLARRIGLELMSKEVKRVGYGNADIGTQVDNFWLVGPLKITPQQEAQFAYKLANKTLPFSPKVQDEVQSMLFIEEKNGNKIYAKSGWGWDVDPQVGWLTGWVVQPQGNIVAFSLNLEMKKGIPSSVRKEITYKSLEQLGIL
pIC50: −log10 of the molar value.

{"columns": ["compound", "system.name", "pIC50"],
 "data": [
  ["NC(=O)[C@@H]1CC[C@@H]2CN1C(=O)N2OC(F)(F)C(=O)[O-].[Na+] [AF1]", "UniProtKB Q5QT35", 5.77]
]}
